Would you mind telling me the reported Ki of each entry?
Target chain: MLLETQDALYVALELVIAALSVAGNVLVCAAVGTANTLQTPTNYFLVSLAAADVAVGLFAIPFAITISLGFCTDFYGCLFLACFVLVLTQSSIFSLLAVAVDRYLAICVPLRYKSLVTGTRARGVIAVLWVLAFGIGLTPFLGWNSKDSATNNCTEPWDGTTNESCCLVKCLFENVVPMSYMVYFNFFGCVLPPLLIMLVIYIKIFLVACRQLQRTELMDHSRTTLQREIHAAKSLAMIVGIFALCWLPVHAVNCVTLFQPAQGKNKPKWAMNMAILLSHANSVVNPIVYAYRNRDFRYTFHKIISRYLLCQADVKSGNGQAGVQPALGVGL
Number only, in µM; omit the unit.

Could you tell me which Ki is on file for `Cn1c(=O)c2c(nc3n2CCCN3CCc2ccccn2)n(C)c1=O` ?
13.4

Given `Cn1c(=O)c2c(nc3n2CCCN3CCc2c[nH]c3ccccc23)n(C)c1=O` , state its recorded Ki.
10

Ki lookup needed for `Cn1c(=O)c2c(nc3n2CCCN3CCOc2ccc(Cl)cc2)n(C)c1=O` , thanks.
10

Fill in the blank: the reported Ki of `Cn1c(=O)c2c(nc3n2CCCN3CCc2ccccc2)n(C)c1=O` is ____.
10

* * *

For each entry below, report its Activity value.
target: Adenosine receptor A1 (Rattus norvegicus) (UniProt P25099); experiment: Displacement of [3H]CCPA from adenosine A1 receptor in rat brain cortical membrane at 25 uM
Numeric only. Scale: %

Find the recorded Activity belonging to Cn1c(=O)c2c(nc3n2CCCN3CC(O)c2ccccc2)n(C)c1=O (stereo not given) and report it.
49

Recorded Activity for `Cn1c(=O)c2c(nc3n2CCCN3CCc2ccccc2)n(C)c1=O` , please?
31

Quick one: Activity for `COc1ccc(CCN2CCCn3c2nc2c3c(=O)n(C)c(=O)n2C)cc1OC` ?
33

What does the record list as Activity for CC(=O)OC(CN1CCCn2c1nc1c2c(=O)n(C)c(=O)n1C)c1ccccc1 (stereo not given) ?
50

# input compound: CC(C(O)c1ccccc1)N1CCCn2c1nc1c2c(=O)n(C)c(=O)n1C (stereo not given) ; wanted: its Activity
45

* * *

target: Adenosine receptor A1 (Rattus norvegicus); test: Displacement of [3H]CCPA from adenosine A1 receptor in rat brain cortical membrane at 10 uM
For each record, write down the corresponding Activity.
Be sure to follow the number with its unit.

Which Activity is listed for `CC(=O)Nc1ccc(OCCN2CCCn3c2nc2c3c(=O)n(C)c(=O)n2C)cc1` ?
41%

Which Activity reading was recorded for the molecule `Cn1c(=O)c2c(nc3n2CCCN3CCOC(=O)Nc2ccc(F)cc2)n(C)c1=O` ?
13%

Would you kindly share the measured Activity for `Cn1c(=O)c2c(nc3n2CCCN3CCOC(=O)Nc2cccc(Cl)c2)n(C)c1=O` ?
10%

For `Cc1ccc(OCCN2CCCn3c2nc2c3c(=O)n(C)c(=O)n2C)cc1` , what is its reported Activity?
41%

Sample `Cn1c(=O)c2c(nc3n2CCCN3CCOC/C=C/c2ccccc2)n(C)c1=O` — what was its Activity?
36%

Recorded Activity of `Cn1c(=O)c2c(nc3n2CCCN3CCOC(=O)Nc2ccc(Cl)cc2)n(C)c1=O` , please.
24%

Report Activity for `Cn1c(=O)c2c(nc3n2CCCN3CCOC(=O)Nc2ccccc2)n(C)c1=O` please.
3%

Look up Activity: `Cn1c(=O)c2c(nc3n2CCCN3CCOCc2ccc(Cl)cc2)n(C)c1=O`
48%

* * *

Target: Adenosine receptor A1 (Rattus norvegicus)
Sequence (P25099 whole entry): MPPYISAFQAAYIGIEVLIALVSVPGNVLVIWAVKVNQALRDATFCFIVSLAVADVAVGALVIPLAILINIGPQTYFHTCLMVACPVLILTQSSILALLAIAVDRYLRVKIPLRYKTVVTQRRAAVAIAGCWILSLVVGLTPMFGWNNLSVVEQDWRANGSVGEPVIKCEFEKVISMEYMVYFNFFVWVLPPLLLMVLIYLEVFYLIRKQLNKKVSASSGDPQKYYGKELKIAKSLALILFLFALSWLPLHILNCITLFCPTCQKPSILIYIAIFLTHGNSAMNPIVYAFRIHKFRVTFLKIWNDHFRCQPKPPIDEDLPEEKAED
Kindly state log10 Ki for each of the entries shown.
Could you please treat all values as log10 of Ki in µM?

Dear colleague, I am looking for the recorded log10 Ki of the following molecule: `Cn1c(=O)c2c(nc3n2CCCN3CCOC/C=C/c2ccccc2)n(C)c1=O`
1.00

So what does the record say about log10 Ki for `COc1ccc(CCN2CCCn3c2nc2c3c(=O)n(C)c(=O)n2C)cc1` ?
0.59

Reported log10 Ki for CC(C(O)c1ccccc1)N1CCCn2c1nc1c2c(=O)n(C)c(=O)n1C (stereo not given) : what is it?
1.40

Fill in: log10 Ki of `Cn1c(=O)c2c(nc3n2CCCN3CCNCc2ccccc2)n(C)c1=O` is ___
0.88

Would you mind telling me what log10 Ki value was observed for `Cn1c(=O)c2c(nc3n2CCCN3CCOc2ccc(Cl)cc2Cl)n(C)c1=O` ?
0.54

Consider the molecule `CCCn1c(=O)c2c(nc3n2CCCN3CCc2ccccc2)n(CCC)c1=O` and give its measured log10 Ki.
-0.21

Name the reported log10 Ki value associated with the molecule Cn1c(=O)c2c(nc3n2CCCN3CC(O)c2ccccc2)n(C)c1=O (stereo not given)
1.40

Which log10 Ki is reported for this molecule? `Cn1c(=O)c2c(nc3n2CCCN3CCOCc2ccc(F)cc2)n(C)c1=O`
0.57

* * *

biological target: Adenosine receptor A2a (Rattus norvegicus)
Sequence (P30543 whole entry): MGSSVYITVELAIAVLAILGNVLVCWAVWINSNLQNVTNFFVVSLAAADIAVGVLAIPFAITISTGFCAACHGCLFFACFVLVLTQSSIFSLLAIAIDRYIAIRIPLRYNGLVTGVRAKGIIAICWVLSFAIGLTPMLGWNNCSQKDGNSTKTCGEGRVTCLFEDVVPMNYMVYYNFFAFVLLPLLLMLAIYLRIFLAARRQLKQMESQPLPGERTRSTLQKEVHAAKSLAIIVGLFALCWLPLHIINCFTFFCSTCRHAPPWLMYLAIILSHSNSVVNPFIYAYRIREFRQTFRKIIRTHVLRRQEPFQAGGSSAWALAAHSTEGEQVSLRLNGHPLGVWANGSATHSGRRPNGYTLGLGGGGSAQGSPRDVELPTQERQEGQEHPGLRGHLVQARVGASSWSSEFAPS
pKi: −log10 of the molar value.
Tag: Satisfied if measured pKi is not below 6, Not satisfied if it is.

Is the recorded value of pKi equal to or greater than 6 for this compound? `Cn1c(=O)c2c(nc3n2CCCN3CCc2c[nH]c3ccccc23)n(C)c1=O`
Satisfied

Test whether the compound `CC(=O)Nc1ccc(OCCN2CCCn3c2nc2c3c(=O)n(C)c(=O)n2C)cc1` records pKi of 6 or higher.
Not satisfied

Form field: pKi at least 6? Entry: `Cn1c(=O)c2c(nc3n2CCCN3CCc2ccccc2)n(C)c1=O`
Satisfied

Threshold query (pKi >= 6) on `Cn1c(=O)c2c(nc3n2CCCN3CCc2ccccn2)n(C)c1=O`
Not satisfied

Dear colleague, could you confirm whether `Cn1c(=O)c2c(nc3n2CCCN3CCNCc2ccccc2)n(C)c1=O` has pKi at or above 6?
Not satisfied

Is pKi for `Cn1c(=O)c2c(nc3n2CCCN3CCOC(=O)Nc2ccc(F)cc2)n(C)c1=O` at or above 6?
Not satisfied

Please indicate if the recorded pKi for `Cn1c(=O)c2c(nc3n2CCCN3CCOC/C=C/c2ccccc2)n(C)c1=O` meets or exceeds 6.
Not satisfied

API: above_or_equal(metric=pKi, cutoff=6) for item `Cn1c(=O)c2c(nc3n2CCCN3CCc2ccc(Cl)cc2)n(C)c1=O`
Satisfied

Check the entry `Cn1c(=O)c2c(nc3n2CCCN3CCOC(=O)Nc2ccc(Cl)cc2)n(C)c1=O` : does pKi equal or exceed 6?
Not satisfied

Is pKi for `Cn1c(=O)c2c(nc3n2CCCN3CCOCc2ccc(F)cc2)n(C)c1=O` at or above 6?
Not satisfied

* * *

biological target: UniProt:P0DMS8
Sequence (P0DMS8 whole entry): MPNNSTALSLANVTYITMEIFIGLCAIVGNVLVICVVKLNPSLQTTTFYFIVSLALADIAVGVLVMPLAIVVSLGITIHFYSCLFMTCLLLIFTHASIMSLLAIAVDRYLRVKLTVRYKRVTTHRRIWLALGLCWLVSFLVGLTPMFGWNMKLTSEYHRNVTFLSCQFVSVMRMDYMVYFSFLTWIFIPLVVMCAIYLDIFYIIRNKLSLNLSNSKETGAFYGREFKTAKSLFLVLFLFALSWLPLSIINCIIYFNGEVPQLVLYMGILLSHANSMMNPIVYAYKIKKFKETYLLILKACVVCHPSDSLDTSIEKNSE
For each of the compounds below, state its Ki.

Requested read-out Ki, target or system UniProt:P0DMS8, entry `CCCn1c(=O)c2c(nc3n2CCCN3CCc2c[nH]c3ccccc23)n(CCC)c1=O`
> 1 µM

Checklist item: Ki tested on UniProt:P0DMS8, entry `Cn1c(=O)c2c(nc3n2CCCN3CCc2ccc(O)cc2)n(C)c1=O` , value?
> 10 µM

Identify the measured Ki of `CC(=O)Nc1ccc(OCCN2CCCn3c2nc2c3c(=O)n(C)c(=O)n2C)cc1` for UniProt:P0DMS8.
> 1 µM

Write down the reported Ki of `Cn1c(=O)c2c(nc3n2CCCN3CCc2c[nH]c3ccccc23)n(C)c1=O` , test system: UniProt:P0DMS8.
> 10 µM

What is its Ki for UniProt:P0DMS8? Entry: `Cn1c(=O)c2c(nc3n2CCCN3CCc2ccccc2)n(C)c1=O`
> 10 µM

Give UniProt:P0DMS8 Ki for `Cc1ccc(OCCN2CCCn3c2nc2c3c(=O)n(C)c(=O)n2C)cc1`
> 1 µM

* * *

molecular target: Adenosine receptor A2a (Homo sapiens)
Sequence (P29274 whole entry): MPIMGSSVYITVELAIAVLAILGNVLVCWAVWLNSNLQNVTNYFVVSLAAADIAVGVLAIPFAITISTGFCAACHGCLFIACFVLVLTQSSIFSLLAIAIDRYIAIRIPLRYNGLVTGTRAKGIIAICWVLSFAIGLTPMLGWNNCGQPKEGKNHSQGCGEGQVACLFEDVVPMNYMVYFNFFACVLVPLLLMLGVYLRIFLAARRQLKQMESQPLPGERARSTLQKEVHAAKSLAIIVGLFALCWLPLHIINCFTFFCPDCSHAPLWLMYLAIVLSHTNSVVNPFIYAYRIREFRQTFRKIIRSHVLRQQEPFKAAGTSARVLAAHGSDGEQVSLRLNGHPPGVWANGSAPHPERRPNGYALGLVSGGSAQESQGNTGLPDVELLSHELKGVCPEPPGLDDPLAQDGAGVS
RECORDED METRIC: pKi
Please treat pKi as minus the base-10 logarithm of the molar concentration.

Request the reported pKi associated with `Cn1c(=O)c2c(nc3n2CCCN3CCc2ccccc2)n(C)c1=O`
5.54

* * *

Hi! I'm sharing some Ki results obtained with UniProtKB P25099.
Output spec: scalar in µM, unitless text.

I have this compound here, `CCCn1c(=O)c2c(nc3n2CCCN3CCc2ccc(OC)c(OC)c2)n(CCC)c1=O` , and I need its recorded Ki.
0.82

Field request: Ki | item: `CCCn1c(=O)c2c(nc3n2CCCN3CCc2c[nH]c3ccccc23)n(CCC)c1=O`
1.79

Bench note: what Ki did `Cn1c(=O)c2c(nc3n2CCCN3CCOCc2ccc(Cl)cc2)n(C)c1=O` show?
10

What Ki value was documented for this compound, `Cn1c(=O)c2c(nc3n2CCCN3CCc2ccc(Cl)cc2)n(C)c1=O` ?
6.47

# query: Ki of entry `Cc1ccc(OCCN2CCCn3c2nc2c3c(=O)n(C)c(=O)n2C)cc1`
10
